- Test system: HOP-62
- Method: NCI tumour cell line growth inhibition, 48 h
The source made the active and inactive calls. Cut-off read from the data, not from the text of the source: active = GI50 up to about 1.1 µM and inactive = higher.
Outcomes: Y (active), N (inactive)

>  <Molecule>
COC(=O)[C@H]1C=C[C@@H](C)n2c(=O)c3cc4ccccc4cc3c(=O)n21

>  <System under test>
HOP-62

>  <Group label>
N

$$$$
>  <Molecule>
Cc1cc(Cl)ccc1NC(=O)C1C(=O)N(c2ccc(Cl)cc2C)C(=O)/C1=N\N (stereo not drawn)

>  <System under test>
HOP-62

>  <Group label>
N

$$$$
>  <Molecule>
C[C@@H]1C[C@H]2CC[C@H](O2)[C@H](C)C(=O)O[C@@H](C)C[C@@H]2CC[C@@H](O2)[C@@H](C)C(=O)O[C@H](C)C[C@H]2CC[C@H](O2)[C@H](C)C(=O)O[C@@H](C)C[C@@H]2CC[C@@H](O2)[C@@H](C)C(=O)O1

>  <System under test>
HOP-62

>  <Group label>
Y

$$$$
>  <Molecule>
Nc1ccc2c(c1)C(=O)c1ccccc1-2

>  <System under test>
HOP-62

>  <Group label>
N

$$$$
>  <Molecule>
CCOC(=O)/C(O)=C(/c1n[nH]c(=O)c2ccccc12)[N+](=O)[O-]

>  <System under test>
HOP-62

>  <Group label>
N

$$$$
>  <Molecule>
O=C(CCCn1ccnc1[N+](=O)[O-])NCCn1cnc([N+](=O)[O-])n1

>  <System under test>
HOP-62

>  <Group label>
N

$$$$
>  <Molecule>
CN(/N=C/c1ccnc2ccccc12)c1ccc(Cl)cc1[N+](=O)[O-]

>  <System under test>
HOP-62

>  <Group label>
N

$$$$
>  <Molecule>
Nc1nc(SCc2ccccc2Cl)c2[nH]cnc2n1

>  <System under test>
HOP-62

>  <Group label>
N

$$$$

###

- Test system: HCT-116
- Method: NCI tumour cell line growth inhibition, 48 h
Calls of active or inactive are those of the source. Rule as the data show it: active = GI50 up to about 1.1 µM and inactive = higher.
Possible outcomes: active, inactive

>  <Compound>
O=C(O)Cc1ccc(/N=N/c2c(O)c(C(=O)O)cc3ccccc23)cc1

>  <Group label>
inactive

$$$$
>  <Compound>
C=C(N=[N+]=[N-])c1cn(C2CC(O)C(CO)O2)c(=O)[nH]c1=O (stereo not given)

>  <Group label>
inactive

$$$$
>  <Compound>
COc1ccc2c(c1OC)C(=O)N1C2=Cc2c(cc3c(c2OC)OCO3)CC1N(C)C (stereo not given)

>  <Group label>
inactive

$$$$
>  <Compound>
COc1cccc(/C=N/n2c(-c3ccccc3)n[nH]c2=O)c1

>  <Group label>
inactive

$$$$
>  <Compound>
CC[C@@]1(O)C(=O)OCc2c1cc1n(c2=O)Cc2c-1nc1ccccc1c2CC[Si](C)(C)C

>  <Group label>
active

$$$$

###

- Test system: EKVX
- Method: NCI tumour cell line growth inhibition, 48 h
Calls of active or inactive are those of the source. No stated cut-off is given here; in the data, active = GI50 up to about 1.1 µM and inactive = higher.

>  <Compound>
COc1cc(/C=C2\C(=O)N(c3ccccc3Cl)C(c3ccccc3)S2(=O)=O)cc(OC)c1OC (stereo not given)

>  <GI50>
41.4 µM (inactive)

$$$$
>  <Compound>
O=C1OCC2=Nc3cccc4cccc(c34)N12

>  <GI50>
57.1 µM (inactive)

$$$$
>  <Compound>
COc1cccc(/C=N/n2c(-c3ccccc3)n[nH]c2=O)c1

>  <GI50>
> 100 µM (inactive)

$$$$
>  <Compound>
O=S(=O)(O)c1ccc(/N=N/c2ccc(/N=N/c3c(O)c(S(=O)(=O)O)cc4cc(S(=O)(=O)O)ccc34)cc2)cc1

>  <GI50>
> 100 µM (inactive)

$$$$
>  <Compound>
NC(=O)C1=NNc2ccccc2C(=O)N1c1ccccc1

>  <GI50>
> 100 µM (inactive)

$$$$
